Catalogue of %Inh readings, one per entry.
# Test system: CSF1R
# testContext: concentration: 1 μM, replicates: in singlicate; n = 1;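 further: KINOMEscan kinase panel screen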
endpoint: %Inh

- compound: "COc1cccc(-c2cc(-c3c[nH]nc3-c3ccccn3)ccn2)c1"
  targetOrSystem: "CSF1R"
  testValue: "0%"
- compound: "Cc1cc(NCC(c2ccccc2)c2ccccc2)nc(NCc2ccc(C(F)(F)F)cc2)n1"
  targetOrSystem: "CSF1R"
  testValue: "6%"
- compound: "Cc1c(O)cccc1Nc1ccnc2ccc(C(F)(F)F)cc12.Cl"
  targetOrSystem: "CSF1R"
  testValue: "0%"
- compound: "Cc1cccc(-c2nc(Nc3ccncc3)c3ccccc3n2)n1"
  targetOrSystem: "CSF1R"
  testValue: "0%"
- compound: "CC(=O)Nc1nc2cnc(Nc3cc(NC(=O)c4cccc(CCC#N)c4)ccc3C)nc2s1"
  targetOrSystem: "CSF1R"
  testValue: "90.9%"
- compound: "O=C(Nc1n[nH]c2nc(-c3nccs3)c(Br)cc12)C1CC1"
  targetOrSystem: "CSF1R"
  testValue: "0%"
- compound: "O=c1cc(N2CCOCC2)nc2n(Cc3cccc(Cl)c3Cl)ccn12"
  targetOrSystem: "CSF1R"
  testValue: "25%"
- compound: "O=S(=O)(c1ccc(-c2ccnc3[nH]ccc23)cc1)N1CCCC1"
  targetOrSystem: "CSF1R"
  testValue: "17%"
- compound: "COc1cc2ncnc(Nc3ccc4nc(-c5ccccc5)[nH]c4c3)c2cc1OC.Cl"
  targetOrSystem: "CSF1R"
  testValue: "3%"
- compound: "COc1ccc2nc(-c3cccc(C)n3)nc(Nc3ccncc3)c2c1"
  targetOrSystem: "CSF1R"
  testValue: "3%"
- compound: "C[C@@H]1CCCCN1c1cc(-c2ccc3c(N)n[nH]c3c2)nc(N)n1"
  targetOrSystem: "CSF1R"
  testValue: "2%"
- compound: "Cl.Oc1ccc(-c2nc(-c3ccccc3)[nH]c2-c2ccncc2)cc1"
  targetOrSystem: "CSF1R"
  testValue: "10%"
- compound: "Fc1cc(Cl)ccc1Nc1ccnc2cc(I)ccc12"
  targetOrSystem: "CSF1R"
  testValue: "0%"
- compound: "O=C(Nc1n[nH]c2cc(-c3cccc(F)c3F)ccc12)C1CC1"
  targetOrSystem: "CSF1R"
  testValue: "7%"
- compound: "COc1cc(Nc2nccc(N3CCC(NC(=O)Nc4cc(C)ccc4C)C3)n2)cc(OC)c1OC (stereo not shown)"
  targetOrSystem: "CSF1R"
  testValue: "14%"
- compound: "O=C1NC(=O)C(N2CCc3ccccc32)=C1c1ccccc1Cl"
  targetOrSystem: "CSF1R"
  testValue: "4%"
- compound: "Cc1ccc(NC(=O)Nc2cccc(Cl)c2)cc1-c1ccc(C(=O)Nc2ccncc2)cc1"
  targetOrSystem: "CSF1R"
  testValue: "78%"
- compound: "Cc1nnc(-c2ccc3occ(-c4ccc(S(C)=O)cc4)c3c2)[nH]1 (stereo not shown)"
  targetOrSystem: "CSF1R"
  testValue: "5%"
- compound: "COC(=O)c1c(-c2ccccc2)c2cc(OC)ccc2c(=O)n1Cc1ccccc1"
  targetOrSystem: "CSF1R"
  testValue: "51%"
- compound: "Nc1ncnc2[nH]c(-c3ccccc3)nc12"
  targetOrSystem: "CSF1R"
  testValue: "13%"
- compound: "CCn1c(-c2ccccn2)nc2cnccc21"
  targetOrSystem: "CSF1R"
  testValue: "42%"
- compound: "COc1ccc(Nc2nccc(-c3cccc(NC(=O)c4cc5cc(F)ccc5[nH]4)c3)n2)cc1"
  targetOrSystem: "CSF1R"
  testValue: "10%"
- compound: "COc1cc2nccc(Nc3ccc(NC(=O)c4ccc(C)cc4)c(O)c3)c2cc1OC.Cl"
  targetOrSystem: "CSF1R"
  testValue: "18%"
- compound: "Cc1cccc(-c2nc(Nc3cccc(C(N)=O)c3)c3ccccc3n2)n1"
  targetOrSystem: "CSF1R"
  testValue: "0%"
- compound: "Cl.O=C(Nc1cccc(-c2nn3ncccc3c2-c2ccnc(Nc3cccnc3)n2)c1)c1c(F)cccc1F"
  targetOrSystem: "CSF1R"
  testValue: "17%"
- compound: "O=C(O)COc1ncnc2cc(-c3ccc4[nH]ncc4c3)sc12"
  targetOrSystem: "CSF1R"
  testValue: "0%"
- compound: "Cn1ccc2ncnc(Oc3cccc(C(=O)Nc4ccccc4)c3)c21"
  targetOrSystem: "CSF1R"
  testValue: "6%"
- compound: "Cn1ccc2ncnc(Oc3ccc(NC(=O)Nc4ccccc4)cc3)c21"
  targetOrSystem: "CSF1R"
  testValue: "95.1%"
- compound: "Cc1cc(N2Cc3ccccc3C2)nc(Nc2ccc(S(=O)(=O)N3CCOCC3)cc2)n1.Cl"
  targetOrSystem: "CSF1R"
  testValue: "4%"
- compound: "Fc1cc(Cl)ccc1Nc1ccnc2cc(-c3ccc(CN4CCCCC4)o3)ccc12"
  targetOrSystem: "CSF1R"
  testValue: "20%"
- compound: "CS(=O)(=O)c1ccc(-c2nc3n(c2-c2ccncc2)CCC3)cc1"
  targetOrSystem: "CSF1R"
  testValue: "0%"
- compound: "Cc1c(Cn2ccn3c(=O)cc(N4CCOCC4)nc23)cccc1C(F)(F)F"
  targetOrSystem: "CSF1R"
  testValue: "9%"
- compound: "Cc1ccc(NC(=O)Nc2cc(C(C)(C)C)nn2-c2ccccc2)cc1"
  targetOrSystem: "CSF1R"
  testValue: "30%"
- compound: "Cl.c1ccc(-c2n[nH]cc2-c2ccnc(-c3ccc(CN4CCOCC4)cc3)c2)nc1"
  targetOrSystem: "CSF1R"
  testValue: "0%"
- compound: "CS(=O)(=O)c1ccc(-c2c(-c3ncn[nH]3)sc(N3CCOCC3)c2C#N)cc1"
  targetOrSystem: "CSF1R"
  testValue: "27%"
- compound: "COc1cc2ncn(-c3cc(OCC4CCCO4)c(C(N)=O)s3)c2cc1OC (stereo not shown)"
  targetOrSystem: "CSF1R"
  testValue: "5%"
- compound: "COC(=O)c1c(-c2ccccc2)c2cc(C(=O)O)ccc2c(=O)n1Cc1ccccc1"
  targetOrSystem: "CSF1R"
  testValue: "50%"

---

# %Inh per record follows
# System: IRAK4
# testContext: concentration: 1 μM, replicates: in singlicate; n = 1
endpoint: %Inh (%)

- molecule: "NC(=O)c1nnc2ccccc2c1N"
  testValue: 33
- molecule: "Cl.O=C(Nc1cccc(-c2nn3ncccc3c2-c2ccnc(Nc3cccnc3)n2)c1)c1c(F)cccc1F [GSK312879]"
  testValue: 28
- molecule: "Cc1ccc(C(=O)Nc2ccc(Nc3ccnc4cc(-c5ccccn5)ccc34)cc2O)cc1.Cl [GW440146]"
  testValue: 9
- molecule: "Cn1ccc2ncnc(Oc3ccc(NC(=O)Nc4ccccc4)cc3)c21"
  testValue: 17
- molecule: "Cc1ccc(NC(=O)Nc2cc(C(C)(C)C)nn2-c2ccccc2)cc1 [GSK1014915]"
  testValue: 23
- molecule: "Cc1cccc(-c2nc(Nc3ccc4[nH]ncc4c3)c3ccccc3n2)n1 [GW857175]"
  testValue: 18
- molecule: "COC(=O)c1c(-c2ccccc2)c2cc(C(=O)O)ccc2c(=O)n1Cc1ccccc1"
  testValue: 22
- molecule: "Cc1c(Cn2ccn3c(=O)cc(N4CCOCC4)nc23)cccc1C(F)(F)F [GSK2289044]"
  testValue: 0
- molecule: "Cc1cccc(-c2nc(C)cc(Nc3ccncc3)n2)n1 [GSK257997]"
  testValue: 1
- molecule: "Cc1cccc(-c2nc(Nc3cccc(C(N)=O)c3)c3ccccc3n2)n1 [GW876019]"
  testValue: 4
- molecule: "COc1ccc(Nc2nccc(NCCNC(=O)Nc3ccccc3F)n2)cc1 [GSK1379901]"
  testValue: 20
- molecule: "Fc1cccc(COc2nnc(-c3ccc4c(c3)CCO4)o2)c1"
  testValue: 5
- molecule: "Fc1cc(Cl)ccc1Nc1ccnc2cc(I)ccc12 [GW551191]"
  testValue: 14
- molecule: "COc1cccc(NC(=O)NC2CCN(c3ccnc(Nc4ccc(F)cc4)n3)C2)c1 (stereo not shown) [GSK1379721]"
  testValue: 12
- molecule: "O=C(Nc1n[nH]c2cc(-c3cccc(F)c3F)ccc12)C1CC1 [SB-733894]"
  testValue: 0
- molecule: "O=C(O)COc1ncnc2cc(-c3ccc4[nH]ncc4c3)sc12"
  testValue: 0
- molecule: "COc1ccc(C2=C(Nc3cccc(C(=O)O)c3)C(=O)NC2=O)cc1 [SB-390765]"
  testValue: 0
- molecule: "Cc1cc(N2Cc3ccccc3C2)nc(Nc2ccc(S(=O)(=O)N3CCOCC3)cc2)n1.Cl [GSK1669917]"
  testValue: 0
- molecule: "Cl.NC(=O)c1cccc(Nc2nccc(Nc3ccc(Oc4cccc(Cl)c4)c(Cl)c3)n2)c1 [GW659008]"
  testValue: 0
- molecule: "COc1ccc(Nc2nccc(-c3cccc(NC(=O)c4cc5cc(F)ccc5[nH]4)c3)n2)cc1 [GSK1229782]"
  testValue: 3
- molecule: "COc1cc2nccc(Nc3ccc(NC(=O)c4ccc(C)cc4)c(O)c3)c2cc1OC.Cl [GW440132]"
  testValue: 0
- molecule: "Cc1cc(NCC(c2ccccc2)c2ccccc2)nc(NCc2ccc(C(F)(F)F)cc2)n1 [GW497681]"
  testValue: 8
- molecule: "CC(C)(C)c1ccc(C(=O)Nc2cn3cc(-c4cccnc4)ccc3n2)cc1"
  testValue: 70
- molecule: "Cc1ccc(NC(=O)Nc2cccc(Cl)c2)cc1-c1ccc(C(=O)Nc2ccncc2)cc1 [GSK1398468]"
  testValue: 13
- molecule: "Fc1cc(Cl)ccc1Nc1ccnc2cc(-c3ccc(CN4CCCCC4)o3)ccc12 [GW560116]"
  testValue: 0
- molecule: "Cc1nnc(-c2ccc3occ(-c4ccc(S(C)=O)cc4)c3c2)[nH]1 (stereo not shown)"
  testValue: 0
- molecule: "COc1ccccc1CNC(=O)c1cc(C(=O)c2ccccc2C)c[nH]1 [GSK364507]"
  testValue: 23
- molecule: "COc1ccc(CNC(=O)NC2CCN(c3ccnc(Nc4cc(OC)c(OC)c(OC)c4)n3)C2)cc1 (stereo not shown) [GSK1379748]"
  testValue: 0
- molecule: "CCn1c(-c2ccccn2)nc2cnccc21 [SB-736398]"
  testValue: 37
- molecule: "CN(C)CCN(C)C(=O)c1cc(-c2ccncc2)c(-c2ccc(Cl)c(O)c2)o1.Cl.Cl [SB-710397]"
  testValue: 43
- molecule: "Cc1cccc(-c2nc(-c3ccc(S(C)(=O)=O)cc3)sc2-c2ccnc(NCCc3ccccc3)c2)c1"
  testValue: 9
- molecule: "COc1cccc(-c2cc(-c3c[nH]nc3-c3ccccn3)ccn2)c1 [GW680338]"
  testValue: 0
- molecule: "C[C@@H]1CCCCN1c1cc(-c2ccc3c(N)n[nH]c3c2)nc(N)n1 [GSK2258759]"
  testValue: 0
- molecule: "Cc1cc(-c2ccc3c(c2)CC[C@@H](N[C@@H](C)c2ccccc2)C3)cnc1N.Cl [GW412617]"
  testValue: 71
- molecule: "O=c1cc(N2CCOCC2)nc2n(Cc3cccc(Cl)c3Cl)ccn12 [GSK2286295]"
  testValue: 0
- molecule: "COC(=O)c1c(-c2ccccc2)c2cc(OC)ccc2c(=O)n1Cc1ccccc1"
  testValue: 10
- molecule: "COc1ccc2nc(-c3cccc(C)n3)nc(Nc3ccncc3)c2c1 [GSK204919]"
  testValue: 0
